// each record: one item and its pKi for Neuronal acetylcholine receptor subunit alpha-3 (Rattus norvegicus)
// field semantics: pKi = negative decimal log of concentration (mol/L)

[Q] Find the measured pKi: item "C[N+](C)(C)CCOC(N)=O" , target or system Neuronal acetylcholine receptor subunit alpha-3 (Rattus norvegicus).
[A] 5.42

[Q] Return pKi measured with Neuronal acetylcholine receptor subunit alpha-3 (Rattus norvegicus) given this compound: "O=c1cccc2n1C[C@H]1CNC[C@H]2C1"
Sequence (P04757 whole entry): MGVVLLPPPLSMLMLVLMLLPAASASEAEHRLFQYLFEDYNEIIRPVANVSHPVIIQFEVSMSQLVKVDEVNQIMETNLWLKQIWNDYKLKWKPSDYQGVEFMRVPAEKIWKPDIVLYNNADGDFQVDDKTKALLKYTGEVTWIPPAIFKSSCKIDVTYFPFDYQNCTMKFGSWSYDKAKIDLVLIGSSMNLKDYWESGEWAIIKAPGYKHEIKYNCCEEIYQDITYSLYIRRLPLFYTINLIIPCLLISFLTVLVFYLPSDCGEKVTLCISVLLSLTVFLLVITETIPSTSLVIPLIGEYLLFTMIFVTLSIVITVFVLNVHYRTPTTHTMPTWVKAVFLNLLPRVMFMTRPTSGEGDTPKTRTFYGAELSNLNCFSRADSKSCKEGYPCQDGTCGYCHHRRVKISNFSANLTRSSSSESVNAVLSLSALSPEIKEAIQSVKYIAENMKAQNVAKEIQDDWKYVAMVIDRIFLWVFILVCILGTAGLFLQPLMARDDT
[A] 6.71

###

Molecular target: Neuronal acetylcholine receptor subunit alpha-3 (Rattus norvegicus)
pKi: −log10 of the molar value.
measured endpoint: pKi

>  <compound>
COc1cc2c3cc1Oc1cc(ccc1O)C[C@H]1c4c(cc(OC)c(O)c4Oc4ccc(cc4)C[C@@H]3N(C)CC2)CC[N+]1(C)C

>  <pKi>
< 5.00

$$$$
>  <compound>
C[N+](C)(C)CCCCCC[N+](C)(C)C [Hexamethoniumdibromide]

>  <pKi>
< 5.00

$$$$

[Q] Any idea what its pKi is? The compound is "CO[C@@H]1CC=C2CCN3CCC4=C(CC(=O)OC4)[C@@]23C1"
[A] < 5.00
